# Experimental target: CYP3A4 (Homo sapiens, UniProt P08684)
# Construct: purchased Invitrogen (Vivid screening kits)
# Sequence (P08684 whole entry): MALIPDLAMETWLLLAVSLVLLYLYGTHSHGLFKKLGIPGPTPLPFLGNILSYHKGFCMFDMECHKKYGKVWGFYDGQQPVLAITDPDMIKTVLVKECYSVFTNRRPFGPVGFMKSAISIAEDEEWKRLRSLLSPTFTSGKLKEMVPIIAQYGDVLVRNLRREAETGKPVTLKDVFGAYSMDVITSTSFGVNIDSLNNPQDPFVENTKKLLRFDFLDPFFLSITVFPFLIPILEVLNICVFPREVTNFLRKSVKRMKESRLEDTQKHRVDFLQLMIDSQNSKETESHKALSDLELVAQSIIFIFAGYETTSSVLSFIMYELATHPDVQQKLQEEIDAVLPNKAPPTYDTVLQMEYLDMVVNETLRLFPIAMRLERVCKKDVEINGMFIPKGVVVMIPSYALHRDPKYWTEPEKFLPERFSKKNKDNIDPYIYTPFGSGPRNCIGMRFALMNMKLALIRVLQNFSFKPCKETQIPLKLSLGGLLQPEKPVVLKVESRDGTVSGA
# Assay explanation: CYP inhibition fluorescence assay (rhCYP450, Vivid Invitrogen kit)
# Format: in vitro ADME
# Condition set: human, read-out: % inhibition @ 10 uM 3A4
Assay endpoint: inhibition at 10 uM (%)
Express your answer in %, writing the number without its unit.

Example cases with answers are listed next.
Molecule: CCOc1ccc(-c2cccc(OC[C@@H]3CN(S(=O)(=O)c4c(C(N)=O)[nH]c5ccc(Cl)cc45)CCO3)c2)cn1
Unit: %
inhibition at 10 uM: 2
--
Molecule: Cc1cc(OC[C@@H]2CN(S(=O)(=O)c3c(C(N)=O)[nH]c4ccc(Cl)cc34)CCO2)ccc1-c1ccnc(Cl)c1
Unit: %
inhibition at 10 uM: 24
--
Molecule: NC(=O)c1[nH]c2ccc(Cl)cc2c1S(=O)(=O)N1CCO[C@H](COc2ccc(-c3ncccn3)cc2)C1
Unit: %
inhibition at 10 uM: 37
--
Molecule: Cc1cc(-c2ccc(OC[C@@H]3CN(S(=O)(=O)c4c(C(N)=O)[nH]c5ccc(Cl)cc45)CCO3)cc2)ccn1
Unit: %
inhibition at 10 uM: 13
--
Molecule: NC(=O)c1[nH]c2ccc(I)cc2c1S(=O)(=O)N1CCO[C@H](COc2ccccc2)C1 [Compound 999, reference compound]
Unit: %
inhibition at 10 uM: 36

// below: inhibition at 10 uM requested for another molecule
q: Look up inhibition at 10 uM for this molecule: Cc1ccc(OC[C@@H]2CN(S(=O)(=O)c3c(C(N)=O)[nH]c4ccc(Cl)cc34)CCO2)cc1-c1ccccc1
a: 2

###

# Experimental target: intracellular kinase domain of human IGF-1R (GST fusion protein) (Homo sapiens, UniProt P08069)
# Construct: IGFRK and IRK enzyme used for the assay was intracellular kinase domain of human IGF-1R; GST
# Sequence (P08069 999-1274 limits assumed): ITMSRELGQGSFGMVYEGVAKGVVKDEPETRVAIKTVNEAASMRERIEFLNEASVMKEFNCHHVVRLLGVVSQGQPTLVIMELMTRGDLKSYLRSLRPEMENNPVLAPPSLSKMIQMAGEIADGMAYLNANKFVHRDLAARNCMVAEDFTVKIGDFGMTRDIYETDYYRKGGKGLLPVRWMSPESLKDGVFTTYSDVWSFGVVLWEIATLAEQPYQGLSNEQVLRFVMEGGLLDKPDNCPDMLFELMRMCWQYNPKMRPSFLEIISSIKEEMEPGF
# Assay explanation: In vitro IGF-1R kinase assay (HTRF)
# Condition set: ATP 20 μM, IGFRK 0.25 nM
Examples of compounds with documented IC50 follow.
// note: answer is a bare numeric in nM

In the examples that follow, each entry is paired with its recorded IC50.
Compound: Cc1ccc(OC[C@@H]2CN(S(=O)(=O)c3c(C(N)=O)[nH]c4ccc(Cl)cc34)CCO2)cc1-c1cccnc1F
Unit: nM
IC50: 42.5
--
Compound: COc1ccccc1-c1ccc(OC[C@@H]2CN(S(=O)(=O)c3c(C(N)=O)[nH]c4ccc(Cl)cc34)CCO2)cc1 [Compound 36]
Unit: nM
IC50: 81

# context switch: different compound, same IC50
q: Fill blank: measured IC50 of the compound NC(=O)c1[nH]c2ccc(Cl)cc2c1S(=O)(=O)N1CCO[C@H](COc2ccc(F)c(-c3ccncc3)c2)C1 is ____.
a: 6.9

###

# Experimental target: intracellular kinase domain of human IGF-1R (GST fusion protein) (Homo sapiens)
# Construct: IGFRK and IRK enzyme used for the assay was intracellular kinase domain of human IGF-1R; GST
# Assay explanation: In vitro IGF-1R kinase assay (HTRF)
# Condition set: ATP 20 μM, IGFRK 0.25 nM
Assay endpoint: pIC50
# reply with the number alone; pIC50 is -log10 of concentration in mol/L

q: Which pIC50 value belongs to NC(=O)c1[nH]c2ccc(Cl)cc2c1S(=O)(=O)N1CCO[C@H](COc2ccc(-c3ccnc(F)c3)cc2)C1 ?
a: 7.92

q: Consider the molecule shown here: COc1ccc(-c2cc(OC[C@@H]3CN(S(=O)(=O)c4c(C(N)=O)[nH]c5ccc(Cl)cc45)CCO3)ccc2C)cn1 What is its recorded pIC50?
a: 7.27

q: Could you tell me which pIC50 is on file for Cc1cc(-c2cccc(OC[C@@H]3CN(S(=O)(=O)c4c(C(N)=O)[nH]c5ccc(Cl)cc45)CCO3)c2)ccn1 ?
a: 8.54

The measured values listed here are drawn from patent US20150119394A1.
